- Test system: D6 clone of P. falciparum
- test-method-notes: Antimalarial activity, D6 clone
- Format: cell-based
- cond: Plasmodium falciparum, D6; read-out: IC50 against D6 clone of P. falciparum
readout-kind: IC50 (nM)
Give bare numbers, in nM.

Enquiry: Entry under review: COc1ccc2cc3[n+](cc2c1OC)CCc1cc2c(cc1-3)OCO2 [berberine] . Reported IC50?
Return: 1100
